meta.source: patent US5478845A

biological target: DOPAMINE D1 Receptor (Rattus norvegicus); construct: Male Wistar rats, 150-200 g are decapitated; Striatum is removed quickly; assay: TEST 2: In Vitro Inhibition of DOPAMINE D1 Receptor Binding (3H-SCH 23390, rat striatum); conditions: 3H-SCH 23390 (0.2 nM), rat striatum membranes, 60 min. at 30° C.; read-out: TEST 2 IC50 (concentration inhibiting specific binding by 50%)
Sequence (P18901 whole entry): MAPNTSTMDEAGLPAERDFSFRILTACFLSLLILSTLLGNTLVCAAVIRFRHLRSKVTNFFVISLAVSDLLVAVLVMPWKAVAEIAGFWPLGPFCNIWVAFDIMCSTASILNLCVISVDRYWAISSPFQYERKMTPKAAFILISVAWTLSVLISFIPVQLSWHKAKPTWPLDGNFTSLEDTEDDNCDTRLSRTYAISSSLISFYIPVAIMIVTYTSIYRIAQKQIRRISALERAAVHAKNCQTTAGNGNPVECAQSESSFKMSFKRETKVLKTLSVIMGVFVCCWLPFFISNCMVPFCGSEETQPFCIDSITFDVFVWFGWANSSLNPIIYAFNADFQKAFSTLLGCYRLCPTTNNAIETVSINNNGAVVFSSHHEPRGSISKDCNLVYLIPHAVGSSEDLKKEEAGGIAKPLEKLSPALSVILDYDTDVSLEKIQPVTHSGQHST
QUANTITY MEASURED: IC50
In your response, the unit should come after the numeric value.

What value of measured IC50 is listed for `CN(C(=O)OCCCN1CCC(c2noc3cc(F)ccc23)CC1)c1ccccc1` ?
43 nM

Also `CCN(C(=O)OCCCN1CCC(c2noc3cc(F)ccc23)CC1)c1ccc2c(c1)OCO2` , if possible.
30 nM
